Cited source: ChEMBL document CHEMBL1133771

molecular target: UniProt P30556; assay: Binding affinity against AT1 in human hepatoma cell line, PLC-PRF-5
pKi: −log10 of the molar value.
Parameter threshold = 7. Response is MET when pKi meets or exceeds it, else NOT MET.

Ask | # check: pKi of CCCCCN1C(=O)C2(CCCC2)C(=O)N1Cc1ccc(-c2ccccc2S(=O)(=O)NC(=O)c2ccccc2)cc1 is greater than or equal to 7
Reply | MET

Ask | Is the recorded value of pKi equal to or greater than 7 for this molecule? CCCN1C(=O)C2(CCCC2)C(=O)N1Cc1ccc(-c2ccccc2S(=O)(=O)NC(=O)c2ccccc2)cc1
Reply | MET

Ask | Is it the case that Cc1ccc(N2C(=O)C3(CCCC3)C(=O)N2Cc2ccc(-c3ccccc3-c3nn[nH]n3)cc2)cc1 has pKi reaching or exceeding 7?
Reply | NOT MET

Ask | Form field: pKi at least 7? Entry: CCCCN1C(=O)C(C)(C)C(=O)N1Cc1ccc(-c2ccccc2S(=O)(=O)NC(=O)c2ccccc2)cc1
Reply | MET

Ask | Form field: pKi at least 7? Entry: CCCCN1C(=O)C2(CCCC2)C(=O)N1Cc1ccc(-c2ccccc2C(=O)O)cc1
Reply | NOT MET

Ask | Form field: pKi at least 7? Entry: CCCCN1C(=O)C2(CCCC2)C(=O)N1Cc1ccc(C(=O)Nc2ccccc2C(=O)O)cc1
Reply | NOT MET

Ask | Check the entry O=C1N(Cc2ccccc2)N(Cc2ccc(-c3ccccc3-c3nn[nH]n3)cc2)C(=O)C12CCCC2 : does pKi equal or exceed 7?
Reply | NOT MET

Ask | Please tell me: is the molecule CCCCN1C(=O)C(C)(CCCC)C(=O)N1Cc1ccc(-c2ccccc2S(=O)(=O)NC(=O)c2ccccc2)cc1 (stereo not drawn) at or over 7 in terms of pKi?
Reply | MET

----------
Target: Angiotensin II receptor (Homo sapiens, UniProt P30556+P50052)
Sequence (P30556 whole entry): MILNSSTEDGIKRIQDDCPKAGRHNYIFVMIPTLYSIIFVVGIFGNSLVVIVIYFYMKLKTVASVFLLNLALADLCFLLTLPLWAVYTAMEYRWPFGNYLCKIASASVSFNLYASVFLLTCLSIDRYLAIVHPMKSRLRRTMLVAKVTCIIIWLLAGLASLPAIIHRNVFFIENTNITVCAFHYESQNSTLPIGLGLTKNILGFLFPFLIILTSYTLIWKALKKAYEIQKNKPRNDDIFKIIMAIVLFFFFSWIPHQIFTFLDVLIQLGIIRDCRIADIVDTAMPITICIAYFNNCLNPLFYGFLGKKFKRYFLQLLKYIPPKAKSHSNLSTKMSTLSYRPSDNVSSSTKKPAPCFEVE
Sequence (P50052 whole entry): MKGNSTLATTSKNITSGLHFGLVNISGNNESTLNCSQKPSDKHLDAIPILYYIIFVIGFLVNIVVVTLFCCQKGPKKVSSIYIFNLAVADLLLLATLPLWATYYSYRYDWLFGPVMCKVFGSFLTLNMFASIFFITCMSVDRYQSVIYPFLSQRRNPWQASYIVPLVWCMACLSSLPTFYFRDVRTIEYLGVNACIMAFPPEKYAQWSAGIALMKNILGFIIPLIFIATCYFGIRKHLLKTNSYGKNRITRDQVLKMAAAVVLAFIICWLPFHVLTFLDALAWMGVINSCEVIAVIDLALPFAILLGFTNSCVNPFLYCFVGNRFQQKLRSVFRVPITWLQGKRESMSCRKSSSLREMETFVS
Test: In vitro antagonist activity, Inhibition of angiotensin II (50 nM) mediated increase in cytosolic [Ca2+] conc. in PLC-PRF-5 cells
Type: functional, cell-based
Lab note: compare IC50 with 40 nM, writing T if less and F if equal or more.

Ask | Dear reviewer, please state whether CCCN1C(=O)C2(CCCC2)C(=O)N1Cc1ccc(-c2ccccc2S(=O)(=O)NC(=O)c2ccccc2)cc1 has IC50 strictly beneath 40 nM.
Reply | F

Ask | Is IC50 of O=C1N(Cc2ccc(-c3ccccc3-c3nn[nH]n3)cc2)N(c2ccccc2)C(=O)C12CCCC2 strictly below 40 nM?
Reply | F

Ask | Here's an entry: CCCCCN1C(=O)C2(CCCC2)C(=O)N1Cc1ccc(-c2ccccc2S(=O)(=O)NC(=O)c2ccccc2)cc1 . Is its IC50 below 40 nM?
Reply | T

Ask | Strictly below 40 nM: is that where IC50 of CCCCN1C(=O)C2(CCCC2)C(=O)N1Cc1ccc(-c2ccccc2-c2nn[nH]n2)cc1 sits?
Reply | T

Ask | Hello, I'm reviewing records and need to know if IC50 of CCCCC(=O)NS(=O)(=O)c1ccccc1-c1ccc(CN2C(=O)C3(CCCC3)C(=O)N2CCCC)cc1 is below 40 nM. Could you check?
Reply | T

Ask | Does the reported IC50 of CCCCN1C(=O)C2(CCCC2)C(=O)N1Cc1ccc(-c2ccccc2S(=O)(=O)NC(=O)NC2CCCCC2)cc1 stay below 40 nM?
Reply | T

Ask | Just wondering, is IC50 of CCCCN1C(=O)C2(CCCC2)C(=O)N1Cc1ccc(-c2ccccc2S(=O)(=O)NC(=O)c2ccccc2)cc1 below 40 nM?
Reply | T

Ask | Dear reviewer, please state whether CCCCN1C(=O)C(C)(C)C(=O)N1Cc1ccc(-c2ccccc2S(=O)(=O)NC(=O)c2ccccc2)cc1 has IC50 strictly beneath 40 nM.
Reply | T
